Overview of recorded Ki for various molecules
- System name: Neuroendocrine convertase 2 (Homo sapiens)
- Sequence (P16519 whole entry): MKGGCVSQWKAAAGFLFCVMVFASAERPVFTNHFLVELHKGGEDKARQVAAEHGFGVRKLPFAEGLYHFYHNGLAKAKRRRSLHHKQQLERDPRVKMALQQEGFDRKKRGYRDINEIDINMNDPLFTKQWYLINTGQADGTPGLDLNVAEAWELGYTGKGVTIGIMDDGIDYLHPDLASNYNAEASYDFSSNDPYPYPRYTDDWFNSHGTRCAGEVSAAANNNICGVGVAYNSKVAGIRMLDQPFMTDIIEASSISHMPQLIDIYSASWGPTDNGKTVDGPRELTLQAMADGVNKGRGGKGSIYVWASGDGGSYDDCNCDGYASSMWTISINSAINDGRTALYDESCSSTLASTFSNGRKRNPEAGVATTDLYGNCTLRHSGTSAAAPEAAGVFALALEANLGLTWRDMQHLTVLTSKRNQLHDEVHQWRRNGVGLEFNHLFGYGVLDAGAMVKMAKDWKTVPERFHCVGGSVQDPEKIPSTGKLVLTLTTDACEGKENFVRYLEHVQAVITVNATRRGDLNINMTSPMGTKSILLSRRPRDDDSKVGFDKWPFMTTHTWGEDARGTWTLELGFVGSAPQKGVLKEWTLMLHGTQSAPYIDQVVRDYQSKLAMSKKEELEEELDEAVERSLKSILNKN
The response must be a number in nM with no trailing unit.

{"Structure smiles string": "CC(C)[C@H](NC(=O)[C@H](CCCNC(=N)N)NC(=O)Cc1ccccc1)C(=O)N[C@@H](CCCNC(=N)N)C(=O)NCc1ccc(C(=N)N)cc1", "Ki (nM)": 312}
{"Structure smiles string": "CCCCCCCCCC(=O)N[C@@H](CCCN=C(N)N)C(=O)N[C@H](C(=O)N[C@@H](CCCN=C(N)N)C(=O)NCc1ccc(C(=N)N)cc1)C(C)C", "Ki (nM)": 55}

Below: the item to evaluate.
Note down Ki recorded for CC(=O)N[C@@H](CCCNC(=N)N)C(=O)N[C@H](C(=O)N[C@@H](CCCNC(=N)N)C(=O)NCc1ccc(C(=N)N)cc1)C(C)C 1390
